Test readout: intrinsic clearance, human liver microsomes (mL/min/kg)

Known intrinsic clearance, human liver microsomes results, listed for orientation:
CC(=O)Nc1cccc(OC(=O)N2CCOCC2)c1
7.54
O=c1[nH]c(=O)n([C@H]2C[C@H](O)[C@@H](CO)O2)cc1C(F)(F)F
41.9
N#Cc1cc(-c2n[nH]c(-c3ccncc3)n2)ccn1
8.89

I = Cc1ccc(Cn2nccc2NC(=O)c2ccncc2)o1
II = Cc1c(Cl)cccc1NC(=O)C(C)N1CCCN(c2nccs2)CC1 (centres undefined)
Req: Quick check, higher intrinsic clearance, human liver microsomes between I and II ? Please identify the chosen entry by its label.
Resp: II
(II: 928 mL/min/kg, I: 7.52 mL/min/kg)

P = Cc1nc2ccc(NC(=O)c3sc(-c4ccccn4)nc3C)cc2s1
Q = N#Cc1cc(CN2CCC(Nc3ncnc4sc(Cl)cc34)CC2)ccc1F
Req: Two entries are listed, P and Q . Which one carries the higher intrinsic clearance, human liver microsomes? Bench note: the answer is the label of the chosen record.
Resp: Q

I = CN1[C@@H]2CC[C@H]1C[C@H](OC(c1ccccc1)c1ccccc1)C2
II = CCCCOc1nc(N)c2c(n1)N(Cc1cccc(CN3CCCC3)c1)CC(=O)N2
III = Clc1ccc(Cc2nc(-c3cccnc3)no2)cc1
IV = Cn1c(-c2ccc(F)cc2)cnc1NC(=O)CCC(=O)N1CC(=O)Nc2ccccc21
Req: Kindly order the items shown according to intrinsic clearance, human liver microsomes, from the highest value down. Would you mind listing the labels in the order asked for?
Resp: II, IV, III, I
